System: SW-620 colon
EXPERIMENTAL_DETAILS: NCI-60 one-dose screen, 48 h (100 = growth as untreated, 0 = no growth, -100 = all killed)
REPORTED_CONDITIONS: 10 µM unless noted
About 83,000 compounds went through this panel and 20% of them were active in at least one assay; those are over-represented in the sample as a whole.
# growth annotations
OBSERVED_PROPERTY: growth (%)

compound=CN(CCNCc1ccccn1)CCNCc1ccccn1 result_number=4.13
compound=COc1ccc(-n2c(-c3ccc(NC(=O)CCCl)cc3)nnc2-c2cc(OC)c(OC)c(OC)c2)cc1 result_number=54.5
compound=O=C(Nc1ccc(-n2cc(-c3ccncc3)c(-c3ccc(O)c(Cl)c3)n2)cc1)Nc1ccc(Cl)c(C(F)(F)F)c1 result_number=19.6
compound="CN1C(=O)C2(SCC(C(=O)NCC(=O)OC(C)(C)C)N2C(=O)C2CCCCC2)c2ccccc21 (stereo not given)" result_number=98.7
compound=CCCCOc1nc2ccc(Cl)cc2cc1/C=C/C(=O)/C=C/c1ccc(OC)cc1 result_number=107
compound=O=C(N/N=C/c1ccccc1O)c1ccccc1O result_number=41.4
compound="OC[C@@H](O)C(O[C@@H]1O[C@H](CO)[C@H](O)[C@H](O)[C@H]1O)[C@H](O)[C@@H](O)CO (stereo not given in full)" result_number=102
compound=O=C(Nc1cccc(-n2ccc3c(NC(=O)c4ccccc4)nccc32)c1)Nc1cc(C(F)(F)F)cc(C(F)(F)F)c1 result_number=21.2
compound=COc1cc(C(=O)C[n+]2ccccc2)ccc1OC(C)=O result_number=96.9
compound="CCOC(=O)C1=C(N)Oc2cc(OC)ccc2C1c1ccc(F)c(F)c1 (stereo not given)" result_number=21.1
